- Tested on: Plasmodium falciparum
- Test Summary: Antimalarial activity against Plasmodium falciparum 3D7 infected in human erythrocytes after 48 hrs by lactate dehydrogenase assay
- Type: functional, cell-based
- Assay Context: 3D7, 48 h
# IC50 listing for each entry below
Please respond with the number in µM and leave the unit unwritten.

Example cases with answers are listed next.
| Chemical Structure | Assay Result |
| --- | --- |
| CCOP(=O)(CC(=O)Nc1cccc(CO)c1)OCC | 10.1 |
| CCOP(=O)(CCC(=O)N(Cc1ccccc1)c1cccc(OCc2ccccc2)c1)OCC | 16.4 |

In plain terms, CCOP(=O)(CCC(=O)N(Cc1ccccc1)c1ccccn1)OCC has a documented IC50 of 22.3

In plain terms, C#CCNC(=O)CCP(=O)(OCC)OCC has a documented IC50 of 20.1

In plain terms, CCOP(=O)(CC(=O)Nc1ccccn1)OCC has a documented IC50 of 23.1

----------
# inhibition listing for each entry below
- System: Plasmodium falciparum
- Test Summary: Inhibition of Plasmodium falciparum DXR at 20 uM using DOXP as substrate preincubated for 5 mins followed by substrate addition measured for 10 mins in presence of NADPH by spectrophotometric analysis
Please respond with the number in % and leave the unit unwritten.

Example cases with answers are listed next.
| Chemical Structure | Units Label | inhibition |
| --- | --- | --- |
| O=C(CCP(=O)(O)O)N(Cc1ccccc1)c1cccc(O)c1 | % | 0 |
| CC(=O)N(O)CCCP(=O)(O)O | % | 73.3 |
| O=C(CCP(=O)(O)O)N(Cc1ccccc1)c1ccccn1 | % | 0 |

We next turn to a different compound, shown below.
In plain terms, C#CCNC(=O)CCP(=O)(O)O has a documented inhibition of 6.7

----------
# viability at 24 h, 20 µM listing for each entry below
- Test Summary: Cytotoxicity against human HeLa cells assessed as cell viability at 20 uM after 24 hrs by resazurin based fluorescence assay relative to control
- Type: toxicity
- Assay Context: read-out: Activity
Please respond with the number in % and leave the unit unwritten.

Example cases with answers are listed next.
| Chemical Structure | Readout Name | Assay Result |
| --- | --- | --- |
| CCOP(=O)(CC(=O)Nc1cccc(Br)c1)OCC | viability at 24 h, 20 µM | 102 |
| C#CCNC(=O)CP(=O)(OCC)OCC | viability at 24 h, 20 µM | 104 |
| CCOP(=O)(CCC(=O)Nc1cccc(OCc2ccccc2)c1)OCC | viability at 24 h, 20 µM | 105 |
| CCOP(=O)(CC(=O)Nc1ccccn1)OCC | viability at 24 h, 20 µM | 131 |
| CCOP(=O)(CCC(=O)N(Cc1ccccc1)c1cccc([N+](=O)[O-])c1)OCC | viability at 24 h, 20 µM | 118 |

In plain terms, CCOP(=O)(CCC(=O)N(Cc1ccccc1)c1ccccn1)OCC has a documented viability at 24 h, 20 µM of 113

In plain terms, CCOP(=O)(CC(=O)Nc1cccc(O[Si](C)(C)C(C)(C)C)c1)OCC has a documented viability at 24 h, 20 µM of 85.7

In plain terms, CCOP(=O)(CCC(=O)N(Cc1ccccc1)c1cccc(Br)c1)OCC has a documented viability at 24 h, 20 µM of 121

In plain terms, CCOP(=O)(CCC(=O)Nc1cccc(O)c1)OCC has a documented viability at 24 h, 20 µM of 119

In plain terms, CCOP(=O)(CCC(=O)N(Cc1ccccc1)c1cccc(OCc2ccccc2)c1)OCC has a documented viability at 24 h, 20 µM of 108

In plain terms, CCOP(=O)(CC(=O)Nc1cccc(O)c1)OCC has a documented viability at 24 h, 20 µM of 117

In plain terms, C#CCNC(=O)CCP(=O)(OCC)OCC has a documented viability at 24 h, 20 µM of 92

In plain terms, CCOP(=O)(CC(=O)Nc1cccc(CO)c1)OCC has a documented viability at 24 h, 20 µM of 123

----------
- Test Summary: Cytotoxicity against human HeLa cells assessed as cell viability at 20 uM after 24 hrs by resazurin based fluorescence assay relative to control
- Assay type: toxicity
- Assay Context: read-out: Activity
Readout Name: viability at 24 h, 20 µM
Respond with the figure and its unit, in that order.

In plain terms, CCOP(=O)(CCC(=O)N(Cc1ccccc1)c1cccc(O)c1)OCC has a documented viability at 24 h, 20 µM of 120%

In plain terms, CCOP(=O)(CC(=O)Nc1cccc([N+](=O)[O-])c1)OCC has a documented viability at 24 h, 20 µM of 83.1%

In plain terms, CCOP(=O)(CCC(=O)N(Cc1ccccc1)c1cccc(CO)c1)OCC has a documented viability at 24 h, 20 µM of 110%
